Origin of the recorded values: the supplement of paper PMC11451515

test system: P12-Ichikawa; assay: cell viability relative to DMSO control; higher = less cytotoxic; conditions: RPMI 5 mM glucose + 10% dialyzed FBS; 48 h; 0.0632 µM
parameter measured: cell viability (%)
Give just the number in %; leave the unit off.

Consider the worked cases shown below.
- smiles string: "Clc1cccc(-c2nnnn2Cc2cccnc2)c1Cl"
  unit name: "%"
  cell viability: 93.8
- smiles string: "COc1cc2ncnc(-n3nc(-c4ccccn4)nc3N)c2cc1OC"
  unit name: "%"
  cell viability: 93.2
- smiles string: "CSC1=CC(=CC=C1)NC2=NC3=C(C=N2)/C=C(C(=O)N3C)/C4=C(Cl)C=CC=C4Cl"
  unit name: "%"
  cell viability: 110
- smiles string: "CN(C)CCOC(c1ccccc1)c1ccccc1"
  unit name: "%"
  cell viability: 112
- smiles string: "C[C@@H]1C[C@H]2[C@@H]3\\C=C(C)/C4=C/C5=C(C[C@]4(C)[C@H]3[C@@H](O)C[C@]2(C)[C@@]1(O)C(=O)COC(C)=O)C=N[N]5C6=CC=CC=C6"
  unit name: "%"
  cell viability: 53.3

*Q* I would be grateful if you could share the reported cell viability for Cc1ccc(NC(=O)c2ccc(CN3CCN(C)CC3)cc2)cc1Nc1nccc(-c2cccnc2)n1 .
*A* 109

*Q* Requested field: cell viability. Item: Cc1cc(Nc2ncc(Cl)c(Nc3ccccc3[S+](=O)([O-])C(C)C)n2)c(OC(C)C)cc1C1CCNCC1
*A* 115

*Q* Which measured cell viability value corresponds to Cc1ccc(NC(=O)C2(c3ccc4c(c3)OC(F)(F)O4)CC2)nc1-c1cccc(C(=O)O)c1 ?
*A* 95.4

*Q* Reported cell viability for COc1cc2c(N3CCN(C(=O)Nc4ccc(OC(C)C)cc4)CC3)ncnc2cc1OCCCN1CCCCC1 : what is it?
*A* 81.1

*Q* Would you mind telling me what cell viability value was observed for COc1cc2nccc(Oc3ccc(NC(=O)C4(C(=O)Nc5ccc(F)cc5)CC4)cc3)c2cc1OC ?
*A* 123

*Q* For the molecule COC1=CC=C2Nc3cc(Cl)ccc3C(N=C3C=C(CN4CCCC4)C(=O)C(CN4CCCC4)=C3)=C2N1 , what cell viability is on record?
*A* 120

*Q* Any idea what cell viability was measured for COc1cc2nccc(Oc3ccc(NC(=O)Nc4ccc(F)cc4F)c(F)c3)c2cc1OC ?
*A* 82.1

----------
system: P12-Ichikawa; assay: cell viability relative to DMSO control; higher = less cytotoxic; conditions: RPMI 5 mM glucose + 10% dialyzed FBS; 48 h; 0.00234 µM
parameter measured: cell viability (%)
// return numeric value only (unit: %, not printed)

Take a look at these entries with their results.
- compound: "CCCCN(CCCC)CCC(O)c1cc2c(Cl)cc(Cl)cc2c2cc(C(F)(F)F)ccc12 (configuration not stated)"
  unit name: "%"
  value measured: 110
- compound: "Cc1cc(O)c2c3c4c(cc(O)c13)C(C)(C)C(=O)c1c(O)cc(O)c(c1-4)C2=O"
  unit name: "%"
  value measured: 112
- compound: "Cc1ccc(C(C)(O)c2nc3ccccc3s2)c(C)c1 (configuration not stated)"
  unit name: "%"
  value measured: 103
- compound: "CC[C@H]1OC(=O)[C@H](C)[C@@H](O[C@H]2C[C@@](C)(OC)[C@@H](O)[C@H](C)O2)[C@H](C)[C@@H](O[C@@H]2O[C@@H](C)C[C@H](N(C)C)[C@H]2O)[C@](C)(O)C[C@@H](C)C(=O)[C@H](C)[C@@H](O)[C@]1(C)O"
  unit name: "%"
  value measured: 84.3
- compound: "O=C(O)[C@H](Cc1c[nH]c2ccccc12)N1C(=O)c2ccccc2C1=O"
  unit name: "%"
  value measured: 90.5

*Q* Value lookup for cell viability; key = COCCOC(=O)C/1=C(C)/NC/2=C(C1C3=CC=CC(=C3)O)/C(=O)CC(C2)C4=C(OC)C=CC=C4 (configuration not stated)
*A* 97.9

*Q* cell viability lookup needed for CCNC(=O)C[C@@H]1\N=C(C2=CC=C(Cl)C=C2)/C3=C(C=CC(=C3)OC)[N]4C(=NN=C14)C , thanks.
*A* 118
